Reference for the values: PubChem BioAssay (NCI)

System: SK-MEL-2 melanoma
Test: NCI-60 one-dose screen, 48 h (100 = growth as untreated, 0 = no growth, -100 = all killed)
Conditions: 10 µM unless noted
Description: Growth inhibition of the SK-MEL-2 human tumor cell line is measured as a screen for anti-cancer activity. Cells are grown in 96 well plates and exposed to the test compound for 48 hours. Compounds are tested at a single concentration, which is 10^-5 M for most compounds. The reported endpoint is percent growth (GI% or GIPRCNT), where numbers from 0 - 100% represent growth inhibition, and numbers from -100% - 0 represent cell death. For example, a value of 40 represents 60% growth inhibition. […]
Compounds without any hit were thinned out: in the full panel of roughly 83,000, 20% have a hit.
growth reference
The figure you give is taken to be in %; do not add the unit.

Use these answered entries as a reference point.
compound	test.system	reading.unit	growth
O=C(Nc1cccc(-n2cc(-c3ccncc3)c(-c3ccc(Cl)c(O)c3)n2)c1)Nc1cc(C(F)(F)F)cc(C(F)(F)F)c1	SK-MEL-2 melanoma	%	-73.7
CCCCCCCCCCCCCCCCCCNC(=O)[C@H]1CSC(c2cccs2)N1 (stereo not given in full)	SK-MEL-2 melanoma	%	-86.7
COc1cc(-c2nn(-c3cccc(NC(=O)c4ccccc4)c3)cc2-c2ccncc2)ccc1Cl	SK-MEL-2 melanoma	%	-42.5
O=C1Nc2ccc3c(c2/C1=C\c1cc2c(cc1Br)OCO2)OCO3	SK-MEL-2 melanoma	%	42.4
COc1ccc(Nc2[nH]n3c(=O)cc(C)nc3c2C(N)=O)c(OC)c1	SK-MEL-2 melanoma	%	94
COc1ccc(S(=O)(=O)Nc2cc(/C=C\c3cc(OC)c(OC)c(OC)c3)cc(OC)c2OC)cc1	SK-MEL-2 melanoma	%	18.3

Tell me the measured growth of Cc1ccc2ccccc2c1C[n+]1ccccc1 , please.
111

Quick one: growth for O=S(=O)(NCCCNc1nccc(-n2ccc3cccnc32)n1)c1cccc(C(F)(F)F)c1 ?
107

Reported growth, compound Cn1ncc2c(Sc3ccc(Cl)cc3)ncnc21 : ____
-13.3

# lookup: growth of COc1ccc2c(c1)[nH]c(=O)c1c3cc(C)c(C)cc3cn21
-4.76
